Values from patent US9840465B2

- Test system: Influenza A/California/07/2009 (H1N1), M2 S31N
- Type: cell-based, Influenza A virus
- measurement_parameters: read-out: EC50 ± SE (μM) (N)
Exam item: assign 1.0 to entries whose EC50 is below 5 µM and 0.0 to entries at or above 5 µM. Note that a value of exactly 5 µM receives 0.0.

1) NC1(C23CC4CC(CC(C4)C2)C3)CCCCC1 ... 1.0
2) CC(N)C12CC3CC(CC(C3)C1)C2 (centres unmarked) [Rimantadine (2), Rimantadine, reference compound] ... 0.0
3) C1CCC(C23CC4CC(CC(C4)C2)C3)NC1 (centres unmarked) ... 0.0
4) NCCN1CCCC12C1CC3CC(C1)CC2C3 (centres unmarked) ... 1.0

In: Given the entry CC12CC3CC(CC(C3)C13CCCN3)C2 (centres unmarked) , would its reported EC50 be below 5 µM?
Out: 0.0

In: Is it true that EC50 reported for C1CNC(C23CC4CC(CC(C4)C2)C3)C1 (centres unmarked) is less than 5 µM?
Out: 0.0

In: Quick check: does NC1(C23CC4CC(CC(C4)C2)C3)CCCC1 have EC50 under 5 µM?
Out: 1.0

In: Would you kindly verify if EC50 of CCCC1(N)C2CC3CC(C2)CC1C3 (centres unmarked) is strictly less than 5 µM?
Out: 1.0

---

- assay_target: M2 22-62 (S31N) (Influenza A virus, UniProt P0DOF5, C50S/S31N)
- Format: biochemical
Quick reference: H^+ Uptake Rate ± SD (%) (N) of the listed items.

1. NCCN1CCCC12C1CC3CC(C1)CC2C3 (stereo not shown) ... 11 ± 18 (4) %
2. NC1(C23CC4CC(CC(C4)C2)C3)CCCC1 ... 11 ± 25 (3) %
3. CC12CC3CC(CC(C3)C13CCCN3)C2 (stereo not shown) ... 17 ± 8.7 (6) %
4. C1CNC(C23CC4CC(CC(C4)C2)C3)C1 (stereo not shown) ... 12 ± 13 (5) %
5. CCCC1(N)C2CC3CC(C2)CC1C3 (stereo not shown) ... 24 ± 17 (6) %

Result for NC12CC3CC(CC(C3)C1)C2 [Amantadine (1), Amantadine, reference compound] , tested on M2 22-62 (S31N) (Influenza A virus, UniProt P0DOF5, C50S/S31N), H^+ Uptake Rate ± SD (%) (N): 77 ± 29 (8) %

Observed H^+ Uptake Rate ± SD (%) (N) on M2 22-62 (S31N) (Influenza A virus, UniProt P0DOF5, C50S/S31N), entry C1CCC2(NC1)C1CC3CC(C1)CC2C3 (stereo not shown) , equals 1.3 ± 5.7 (6) %

---

We begin with a simple list: items and their reported EC50.
- System: Influenza A/California/07/2009 (H1N1), M2 S31N
- Format: cell-based, Influenza A virus
- measurement_parameters: read-out: EC50 ± SE (μM) (N)
Unit µM implied. Number only.

Example cases with answers are listed next.
1. O=C1CCC2(N1)C1CC3CC(C1)CC2C3 (stereo not drawn) ... 15.6
2. C1CCC2(NC1)C1CC3CC(C1)CC2C3 (stereo not drawn) ... 19.8

Query molecule follows.
For record NC12CC3CC(CC(C3)C1)C2 [Amantadine (1), Amantadine, reference compound] the listed EC50 is 242
